All values here come from ChEMBL document CHEMBL5316337.

System: Klebsiella pneumoniae
Test Description: Antibacterial activity against Carbapenem-resistant Klebsiella pneumoniae BM1 clinical isolates assessed as reduction in bacterial growth by broth microdilution method
Assay type: functional
Measurement Type: MIC

Return value of MIC for input `CC[C@H](C)CCCCC(=O)N[C@@H](CCN)C(=O)N[C@H](C(=O)N[C@@H](CCN)C(=O)N[C@H]1CCNC(=O)[C@H](CO)NC(=O)[C@H](CCN)NC(=O)[C@H](CCN)NC(=O)[C@H](CC(C)C)NC(=O)[C@@H](Cc2ccccc2)NC(=O)[C@H](CCN)NC1=O)[C@@H](C)O` , no commentary.
0.25 µg/mL

State its MIC: `CC[C@H](C)CCCCC(=O)N[C@@H](CCN)C(=O)N[C@H](C(=O)N[C@@H](CCN)C(=O)N[C@H]1CCNC(=O)[C@H](CCC(=O)O)NC(=O)[C@H](CCN)NC(=O)[C@H](CCN)NC(=O)[C@H](CC(C)C)NC(=O)[C@@H](Cc2ccccc2)NC(=O)[C@H](CCN)NC1=O)[C@@H](C)O`
> 32 µg/mL

Continue with the compound presented below.
Quick one: give measured MIC for `CC[C@H](C)CCCCC(=O)N[C@@H](CCN)C(=O)N[C@H](C(=O)N[C@@H](CCN)C(=O)N[C@H]1CCNC(=O)[C@H](CCCNC(=N)N)NC(=O)[C@H](CCN)NC(=O)[C@H](CCN)NC(=O)[C@H](CC(C)C)NC(=O)[C@@H](Cc2ccccc2)NC(=O)[C@H](CCN)NC1=O)[C@@H](C)O`
> 32 µg/mL
